System: NCI-H1299 cells
Test: MTT based cell viability assay on NCI-H1299 cells
Conditions: Homo sapiens, 72 h; NCI-H1299 cells, 3 d, MTT; read-out: IC50, growth inhibition on NCI-H1299 cells
Recorded metric: IC50 (nM)

Molecule | Numeric readout
CN(C)C1CCN(c2ccc(Nc3ncc4c(=O)n(-c5c(Cl)cccc5Br)n5ccnc5c4n3)cc2Cl)CC1 [Example 48] | 281
CN1CCN(c2ccc(Nc3ncc4c(=O)n(-c5c(F)cccc5Cl)n5ccnc5c4n3)cc2)CC1 [Example 7] | 781
CN1CCN(c2ccc(Nc3ncc4c(=O)n(-c5c(F)cccc5Cl)n5ccnc5c4n3)cc2Cl)CC1 [Example 21] | 511
Cc1cc(Nc2ncc3c(=O)n(-c4c(C)cccc4Cl)n4ccnc4c3n2)ccc1N1CCN(C)CC1 [Example 16] | 365

A: Cc1cc(Nc2ncc3c(=O)n(-c4c(C)cccc4Cl)n4ccnc4c3n2)cc(Cl)c1N1CCN(C)CC1 [Example 55]
B: Cc1cc(Nc2ncc3c(=O)n(-c4c(F)cccc4Cl)n4ccnc4c3n2)cc(F)c1N1CCC(N(C)C)CC1 [Example 25]
**Q:** // task: argmin of IC50 over [ A , B ] Indicate your choice by writing its label.
**A:** B
(B: 249 nM, A: 663 nM)

---

Molecular target: Wee1 kinase (h) (Homo sapiens, UniProt P30291)
Sequence (P30291 whole entry): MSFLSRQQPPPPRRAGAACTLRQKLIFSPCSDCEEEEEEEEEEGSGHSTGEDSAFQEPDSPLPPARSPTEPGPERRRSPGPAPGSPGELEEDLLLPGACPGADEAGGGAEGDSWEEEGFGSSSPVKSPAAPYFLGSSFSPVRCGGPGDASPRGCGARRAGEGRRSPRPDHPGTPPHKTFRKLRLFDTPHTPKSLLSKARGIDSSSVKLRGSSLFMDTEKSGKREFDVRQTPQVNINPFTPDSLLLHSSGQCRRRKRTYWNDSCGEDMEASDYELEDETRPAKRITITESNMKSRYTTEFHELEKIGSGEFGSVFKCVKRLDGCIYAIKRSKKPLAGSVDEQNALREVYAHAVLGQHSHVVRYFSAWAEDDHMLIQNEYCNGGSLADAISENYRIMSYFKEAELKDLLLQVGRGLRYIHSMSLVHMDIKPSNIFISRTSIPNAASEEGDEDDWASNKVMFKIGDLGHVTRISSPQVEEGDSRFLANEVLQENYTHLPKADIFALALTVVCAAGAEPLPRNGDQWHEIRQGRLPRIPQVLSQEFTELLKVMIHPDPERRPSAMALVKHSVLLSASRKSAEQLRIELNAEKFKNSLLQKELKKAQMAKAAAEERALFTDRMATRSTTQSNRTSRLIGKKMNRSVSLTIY
Assay: Wee1 kinase (h) detection method, [γ-33P]-ATP filter assay
Type: biochemical
Conditions: C 1 μm; 10 μM ATP; 40 minutes at room temperature
Recorded metric: Inh. (%) of Wee1 kinase

Compound | Numeric readout
Cc1cc(Nc2ncc3c(=O)n(-c4c(F)cccc4F)n4ccnc4c3n2)cc(F)c1N1CCN(C)CC1 [Example 19] | 92
Cc1cc(Nc2ncc3c(=O)n(-c4c(Cl)cccc4Cl)n4ccnc4c3n2)cc(C)c1N1CCN(C)CC1 [Example 4] | 96
Cc1cc(Nc2ncc3c(=O)n(-c4c(Cl)cccc4Cl)n4ccnc4c3n2)cc(Cl)c1N1CCN(C)CC1 [Example 29] | 93
Cc1cccc(Cl)c1-n1c(=O)c2cnc(Nc3ccc(N4CCN(C)CC4)c(Cl)c3)nc2c2nccn21 [Example 53] | 94

---

Tested on: NCI-H1299 cells
Experiment: MTT based cell viability assay on NCI-H1299 cells
Conditions: Homo sapiens, 72 h; NCI-H1299 cells, 3 d, MTT; read-out: IC50, growth inhibition on NCI-H1299 cells
pIC50: −log10 of the molar value.
Recorded metric: pIC50

Solved entries (count: 10):
Mol smiles | pIC50
Cc1cc(Nc2ncc3c(=O)n(-c4c(F)cccc4F)n4ccnc4c3n2)cc(Cl)c1N1CCN(C)CC1 | 6.22
Cc1cc(Nc2ncc3c(=O)n(-c4c(Cl)cccc4Br)n4ccnc4c3n2)cc(F)c1N1CCC(N(C)C)CC1 | 6.30
Cc1cc(Nc2ncc3c(=O)n(-c4c(Cl)cccc4Br)n4ccnc4c3n2)ccc1N1CCN(C)CC1 | 6.57
Cc1cc(Nc2ncc3c(=O)n(-c4c(F)cccc4F)n4ccnc4c3n2)ccc1N1CCN(C)CC1 | 6.19
Cc1cc(Nc2ncc3c(=O)n(-c4c(F)cccc4Cl)n4ccnc4c3n2)ccc1N1C[C@@H](C)N(C)[C@@H](C)C1 | 6.48
Cc1cnc2c3nc(Nc4ccc(N5CCN(C)CC5)c(Cl)c4)ncc3c(=O)n(-c3c(Cl)cccc3Cl)n12 | 6.27
Cc1cn2c(n1)c1nc(Nc3ccc(N4CCC(N(C)C)CC4)c(C)c3)ncc1c(=O)n2-c1c(Cl)cccc1Cl | 6.82
Cc1cc(Nc2ncc3c(=O)n(-c4c(C)cccc4F)n4ccnc4c3n2)cc(Cl)c1N1CCN(C)CC1 | 6.09
Cc1cccc(Cl)c1-n1c(=O)c2cnc(Nc3ccc(N4CCN(C)CC4)c(Cl)c3)nc2c2nccn21 | 6.09
Cc1cc(Nc2ncc3c(=O)n(-c4c(Cl)cccc4Br)n4ccnc4c3n2)ccc1N1CCC(N(C)C)CC1 | 6.47

1: Cc1cc(Nc2ncc3c(=O)n(-c4c(F)cccc4Cl)n4ccnc4c3n2)cc(Cl)c1N1CCN(C)CC1
2: Cc1cc(Nc2ncc3c(=O)n(-c4c(Cl)cccc4Cl)n4cc(C(C)C)nc4c3n2)ccc1N1CCC(N(C)C)CC1
3: Cc1cc(Nc2ncc3c(=O)n(-c4c(C)cccc4F)n4ccnc4c3n2)cc(C)c1N1CCN(C)CC1
**Q:** Reorder the items by pIC50, least to greatest. The response must list the labels following the requested ordering.
**A:** 3, 1, 2
(3: 6.04, 1: 6.28, 2: 6.70)
